Provide the reported pIC50 of each item.
- SYSTEM TESTED: UniProtKB Q93009
- Sequence (Q93009 208-1102): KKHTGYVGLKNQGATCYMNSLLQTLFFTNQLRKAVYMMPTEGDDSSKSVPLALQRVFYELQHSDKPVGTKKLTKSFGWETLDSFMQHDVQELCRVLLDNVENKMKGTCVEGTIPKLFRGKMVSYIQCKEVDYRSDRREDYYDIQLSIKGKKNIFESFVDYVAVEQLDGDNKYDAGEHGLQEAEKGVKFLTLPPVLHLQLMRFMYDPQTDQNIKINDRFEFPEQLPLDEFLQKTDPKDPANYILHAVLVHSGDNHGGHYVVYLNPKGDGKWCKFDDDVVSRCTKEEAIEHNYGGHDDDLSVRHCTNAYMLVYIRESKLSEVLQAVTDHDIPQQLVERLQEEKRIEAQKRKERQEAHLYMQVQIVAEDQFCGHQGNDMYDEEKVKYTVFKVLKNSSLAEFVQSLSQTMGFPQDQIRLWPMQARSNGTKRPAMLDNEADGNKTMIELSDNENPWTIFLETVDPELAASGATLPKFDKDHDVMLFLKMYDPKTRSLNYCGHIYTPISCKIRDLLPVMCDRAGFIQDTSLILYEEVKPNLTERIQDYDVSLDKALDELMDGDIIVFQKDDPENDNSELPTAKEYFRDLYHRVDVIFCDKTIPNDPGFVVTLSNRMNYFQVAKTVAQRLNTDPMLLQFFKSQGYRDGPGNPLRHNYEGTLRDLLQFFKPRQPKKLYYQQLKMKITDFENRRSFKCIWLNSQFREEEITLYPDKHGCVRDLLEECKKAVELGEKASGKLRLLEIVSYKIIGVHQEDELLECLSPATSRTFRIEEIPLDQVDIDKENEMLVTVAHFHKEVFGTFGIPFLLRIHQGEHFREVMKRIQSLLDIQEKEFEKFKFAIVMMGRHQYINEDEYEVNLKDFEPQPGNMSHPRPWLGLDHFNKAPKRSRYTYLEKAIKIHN
- EXPERIMENTAL PROTOCOL: USP7 Assay B (Ubitquin-Rhodamine110 Assay)
- Type: biochemical
- EXPERIMENTAL CONDITIONS: Ub-Rh110 substrate 25 nM
pIC50: −log10 of the molar value.

Completed entries (count: 5):
Query :: # lookup: pIC50 of `Cc1ccc(C(=O)Nc2cc3c(=O)n(CC4(O)CCN(C(=O)C5CC5)CC4)cnn3c2)cc1Cl`
Result :: < 5.00

Query :: // query: `O=C(COc1ccc(OC(F)(F)F)cc1)Nc1cc2c(=O)n(CC3(O)CCN(C(=O)C4CC4)CC3)cnn2c1`
Result :: < 5.00

Query :: Then CCC(Cc1ccccc1)C(=O)N1CCC(O)(Cn2cnn3cccc3c2=O)CC1 (stereo not shown) ?
Result :: 5.00 to 6.00

Query :: Now the same for CC(C)(C)C(Cc1ccccc1)C(=O)N1CCC(O)(Cn2cnn3cccc3c2=O)CC1 (stereo not shown)
Result :: 5.00 to 6.00

Query :: Here is the next compound: `O=C(c1cccc(-c2cccs2)c1)N1CCC(O)(Cn2cnn3cccc3c2=O)CC1`
Result :: < 5.00

Need pIC50 for each of these compounds.
1. O=C(Nc1cc(F)cc(F)c1)Nc1cc2c(=O)n(CC3(O)CCN(C(=O)C4CC4)CC3)cnn2c1
2. O=C(c1ccc(-c2ccc(C(=O)N3CCC(O)(Cn4cnn5cccc5c4=O)CC3)cc2)cc1)N1CCCC1

Result ::
1. < 5.00
2. 5.00 to 6.00
